The reported numbers originate from the nanobody polyreactivity screen of Harvey et al. (2022).

assay: yeast display, Sf9 membrane polyspecificity reagent, FACS + sequencing; frameworks hold sequencing errors
MEASURE: polyreactivity (PSR sort gate)

SEQUENCE STRING	MEASURED RESULT
QVQLVESGGGLVQAGGSLRLSCAASGIIFTRNAMGWYRQATGKERELVAAITYGGSTYYADSVKGRFTISRDNAKNTVYLQMNSLKPEDTAVYYCAVDAYRYRVHSYGKKYGYNYWGQGTQVTVSS	high polyreactivity
QVQLVESGGGLVQAGGSLRLSCAASGSIFYGNGMGWYRQAPGKERELVAVISVSGGRTFYADSVKGRFTISRDNAKNTVYLQMNSLKPEDTAVYYCATRTYRVDPEFGYWGQGTQVTVSS	high polyreactivity
QVQIVASWGGLVQAGGSLRLSCAATGRIFEINAMGWYRQAPGKERELVAAITRSGGSTYYADSVKGRFTISRDYAKNTVYVQMNSLKPEDTAVYYCAARGRYWYSRYYSWGQGTQVTVSA	high polyreactivity

* * *

assay: yeast display, Sf9 membrane polyspecificity reagent, FACS + sequencing; frameworks hold sequencing errors

SEQUENCE STRING	polyreactivity (PSR sort gate)
LVHLQESGGGLVLAGGGLRLSCAASGNIFTYVIMGWYRQPAGKERELVAAITYGTITNYADSVKGPFTISRDNAKNTVYLQMNCLKPEDTAVYHCAVQSTRIVPRHYYCGQGTQVTVSS	high polyreactivity
QVQLVESGGGLVQAGGSLRLSCAAFPYAMGWYIPAPAKERELVAAISSSGTSTYYADSVKGRFTISRDNAKNTVYLQMNSLKPEDTAVYYCNTALSRLSQHDYWGQGTQVTVSS	low polyreactivity
QVQLVESGGGLVQAGGSLRLSCAASGLTFPENAMGWYRQAPGKEREMVASISDSDGITFYADSVKGSFTISRDNAKNTVYLQMNSLKPEDTAVYYCAADVAIAIPFSYDYWGQGSQVTVSS	low polyreactivity
QVQLEESGGGLVQAGGSLRLSCAASGFIFPHYAMGWYLQAPGKERELVAAISKSGDSTYYADSVKGRFTISRDNAKNTVYLQMNSLKPEDTAVYYCARRGRSLRWKYDYWGQGTQVTVSS	low polyreactivity
QVHHVESGGGLVQAGGSLRLSCAASGFIFTYNAMGWYRQAPGKERELVAAIRSGTNTSYADSVKGRFTISRDNAKNTVYLQMNSLKPEDTAVYYCNREVPEYQGFITPDGYWGQGTQVTVSS	low polyreactivity
QVQLVESGGGLVQAGGSLRLSCAASGSTFRGYAMGWYRQAPGKERELVAAISSRGARTHYADSVKGRFTISRDNAKNTVYLQMNSLKPEDTAVYYCNKRQVFVSTGEYELDYWGQGTQVTVSS	low polyreactivity
QVQLVESGGGLVQAGGSLRLSCAASGFTFRHNGMGWYIQAPGKERELVATITWSGGRTSYADSVKGRFTISRDNAKNTVYLQMNSLKPEDTAVYYCAARFFSYSQYAYNYWGQGTQVTVSS	high polyreactivity
QVQLVESGGGLDQAGGSLRLSCAASGFTFPGNAMGWYRQSPGKEREFVAGISRSGDSTYYADSVKGRFTISRDNAKNTVYLQMNSLKPEDTAVYYCAARNPYRYFYYYEYWGQGTQVTVSS	low polyreactivity
QVQLVESGGGLVQAGGSLRLSCAASGFIFRRYAMVWYRQAPGKERELVAAISTGGSTYYADSVKGRFTISRDNAKNTVYLQMNSLKPDDTAVFYCNVKRRTYGQYRMYYWGQGTQVTVSS	low polyreactivity
QVHLVESGGGLVQAGGSLRLSCAASGSILSINGRGWSRQAPGKERELVATIDGSDGSTFYADSVKGRFTISRDNAKNTVYLQMNSLKPEDTAVYYCAAENFWQTKEYDYWGQGTQVTVSS	low polyreactivity
QVQLVESGGGLVQAGGSLRLICGASGLTSWYNAMGWYRQAPGKEREFVAAISFSGGRTFYADSVKGRFTISRDNAKNTVYLQMNSLKPEDTAVYYCNADVYGFDYWGQGTQVTVSS	high polyreactivity

* * *

experiment: yeast display, Sf9 membrane polyspecificity reagent, FACS + sequencing; frameworks hold sequencing errors

SEQUENCE STRING	polyreactivity (PSR sort gate)
QVQLVESGGGLVQAGGSLRLSCAASGIFTNNAMGWYRQAPGKERELVAAITIRGGSTYYADSVKGRFTISRDNAKNTVYLQMNSLKPEDTAVYYCAARGLGYTDLRSVHMYYWGQGTQVTVSS	high polyreactivity
QVQLVESGGGLVQAGGSLRLSCAASGSTFLRYAMGWYRPAPGKERELVAAISWSGGTTYYADSVKGRFTISRDNAKNTVYLQMNSLKPEDTAVYYCNTASWRAQYYYWGQGTQVTVSS	high polyreactivity
QVQLVESGGGLVQAGGSLRLSSAASGRTSYVYAMGWYRQEPGKERELVAVITRRGGSTYYADSVKGRFTISRDNAKNTVYLQMNSLKPEDTAVYYCNAAYTTWRRGPMNYWGQGTQVTVSS	high polyreactivity
QVQLEESWGGLVQAGGSLRLSCAASGRTFDTYAMGWNRQAPGKERELVAAITSGGSTYYADSVKGRFTISRDNAKNTVYLQMNSLKPEDTAVYYCAVSGQLYAYRYGYWGQGTQVTVSS	low polyreactivity
QVQLVESGGGLVQAGGSLRLSCAASGRIFSDNAMGWYREAPGKERELVAAITWSSGSTYADSVKGRFTISRDNAKNTVYLQMNSLKPEDTAVYYCNVSPGYEPLDHELDYWGQGTQVTVSS	low polyreactivity
QVQLVESGGGLVQAGGSLRLSCAASGSIFSYNAMGWYRQAPGKERELVAAITSGDSTNYADSVKGRFTISRDNAKNTVYLQMNSLKPEDTAVYYCAADPVLPAFGYVGTSLGDYWGQGTQVTVSS	low polyreactivity
QVQLVESGGGLVQAGGSLRLSCAASGRIFTKYAMGWYRQAPGKERELVAAISGSGGNTYYADSVKGRFTISRDNAKNTVYLQMNSLKPEDTAVYYCAVESWRYVGFGYWGQGSQVTVSS	high polyreactivity
QVQLVESGGGLVQAGGSLRLSCAASGRIFFYYAMGWYRQAPGKERELVAAISNSGGGTYYADSVKGRFTISRDNAKNTVYLQMNSLKPEDTAVYYCAREAGRYAYKYYWWQRPDYDYWGQGTQVTVSS	low polyreactivity
QVQLVESGGGLVQAGGSLRLSCAASGRIFGPYAMGWYRQAPRKERELVASISYSGGSTYYADSVKGRFTISRDNAKNTVYLQMNSLKPEDTAVYYCAKGGYWRGYNYWGQGTQVTVSS	low polyreactivity
QVQLVESGGGLVQAGGSLRLSCAASGSIFGYNPMGWYIQAPGKERELVAAISRSGGRTYYADSVKGRFTISRDNAKNTVYLQMNSLKPEDTAVYDCAAPVWRYYRGKTFDYWGQGTQVTVSS	high polyreactivity
QFQLVESGGGLVQAGGSLRLSCAASGFTFPRYAMGWYRQAPGKERELVAAITSGDRTYYADSVKGRFTISRDNAKNTVYLQMNSLKPEDTAVYYCAKSSPRKSSQKHSFYEYNYWGQGTQVSVSS	high polyreactivity
QVQLVESGGGLVQAGGSLRLSCAASGSIFDYNCMGWYRQAPGKESELVATITLSTARTYYADSVKGRFTISRDNAKNTVYLQMNRLKPEDTAVYYCATRYPKFRRRNYWGQGTQVTVSS	high polyreactivity
QVQLVESGGGLVQAGGSLRLSCAASGIIFPYYAMGWSRQGPGKERELVAGISSSGGITYADSVKGRFTISRDNAKYTVYLQMNSLKPEDTAVYYCNAEYQWLEYDYWGQGTQVTVSS	low polyreactivity
QVQLVESGGGLVQAGGSLRLSCAASGFIFVTYAMGWYRQAPGKERELVAAITNSGGTTYYADSVKGRFTISRDNAKNTVYLQMNSLKPEDTAVYYCNKPYGAETAHREFDYWGQGTQLTVSS	low polyreactivity
QVQLVESGGRLVQAGGSLRLSCAASGGTFPTNAMGWYTQAPGKERELVAAITSSGVRTYYADSVKGRFTISRDNAKNTVYLQMNSLKPEDTAVYYCNAVTRYVRLTDDDYWGQGSQVTVSS	high polyreactivity
QVQLVESGGGLVQAGGSLRLSCAASGRTLHYYAMGWYRQAPGKERELVAAISARVGRTYYADSVKGRFTISRDNAKNTVYLQMNSLKPEDTEVYYCAAAGYITRYDRYDYWGQGTQVTVSS	high polyreactivity
QDQVVESGGGLVQAGGSVRLSCADSGSIFWRNAMGWYRQAPGKEREWVAAITSGGTTNYADSVKGRFTLSRDNAKNTVYLQLNTQKPEVTAGDYCATGASDLRRYDHPHSDVDYWGQGTQVTVSA	low polyreactivity
QVQLVESGGGLVQAGVSLRLICAATGSIFWRKTKGWYRQAPGKEREFVAAISTSGSTYYADSVKGRFTISRDNAKNTVYLKMNSLKPEDTAVYYCAADASRGYQREGGYWGQGTQVTVSS	high polyreactivity
QVQLVESGGGLVQAGGSLRLSCAASGSIFLHNAMGWYRQAPGKERVLVAVITSRGGSTYYADSVKGRFTISRDNAKNPVYLQMNSLKPEDTAVYYCAAPAYHKRTSRGDYWGQGTQVTVSS	low polyreactivity
QVQLVESGGGLVQAGGSLRLSCAASGFIFARNAMGWYRQAPGKERELVATITRSSGSTYYADSVKGRFTISRDNAKNTVYLQMNSLKPEDTAVYYCNARLYGTFWGQGTQVTVSS	high polyreactivity
QVQLVESGGGLVQAGGSLRLSCAASGRIFYSYAMGWYRQAPGKERELVARISSGGSTNYADSVKGRFTISRDNAKNTVYLQMNSLNPEDTAVYYCAAATIWSGVHYGYWGQGTQVTVSS	low polyreactivity
